- Subject of test: human Lck enzyme (Homo sapiens)
- Construct: purchased Carna Biosciences, Inc. 08-170
- Sequence (P06239 whole entry): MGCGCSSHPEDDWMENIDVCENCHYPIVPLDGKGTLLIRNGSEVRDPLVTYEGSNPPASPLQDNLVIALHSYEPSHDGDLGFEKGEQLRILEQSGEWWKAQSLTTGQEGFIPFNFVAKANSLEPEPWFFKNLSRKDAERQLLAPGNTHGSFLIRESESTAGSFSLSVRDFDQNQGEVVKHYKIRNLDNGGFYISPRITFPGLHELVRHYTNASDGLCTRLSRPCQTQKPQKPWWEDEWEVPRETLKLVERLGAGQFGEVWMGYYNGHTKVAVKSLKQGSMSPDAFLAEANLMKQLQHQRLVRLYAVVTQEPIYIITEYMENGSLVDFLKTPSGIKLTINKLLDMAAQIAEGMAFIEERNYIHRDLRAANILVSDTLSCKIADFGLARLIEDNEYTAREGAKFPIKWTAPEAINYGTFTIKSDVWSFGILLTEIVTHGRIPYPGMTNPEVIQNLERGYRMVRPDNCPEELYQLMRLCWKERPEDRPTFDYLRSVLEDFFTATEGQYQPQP
- Method description: Lck enzyme inhibitory activity (time-resolved fluorometry, biotinylated peptide phosphorylation)
- Format: biochemical
- Condition parameters: biotinylated peptide phosphorylation, read-out: LCK_IC50
Assign pIC50 to each entry below.
Answers are plain numbers, as −log10 of the molar value.

As a guide, the following entries are already answered.
Cc1cc(Oc2cccc(F)c2F)ccc1-n1ncc(C(=O)c2cc3cc(F)c(NS(=O)(=O)C4CC4)cc3[nH]2)c1N | 7.42
Cc1cc2cc(C(=O)c3cnn(-c4cnc(Oc5c(F)cccc5F)cc4C)c3N)[nH]c2cc1N1C(=O)N[C@@H](Cc2ccccc2)C1=O | 7.55
Cc1cc(Oc2cccc(F)c2F)cc(F)c1-n1ncc(C(=O)c2cc3cc(NS(C)(=O)=O)c(Cl)cc3[nH]2)c1N | 8.09

Give pIC50 for all compounds that follow.
1. Cc1cc(Oc2ccccc2F)ccc1-n1ncc(C(=O)c2cc3cc(OC(F)F)c(N4CCN(S(C)(=O)=O)CC4)cc3[nH]2)c1N
2. Cc1cc2cc(C(=O)c3cnn(-c4cnc(Oc5ccccc5F)cc4C)c3N)[nH]c2cc1NS(=O)(=O)c1cccc(C(F)(F)F)n1
3. Cc1cc2cc(C(=O)c3cnn(-c4cnc(Oc5cccc(Cl)c5)cc4C)c3N)[nH]c2cc1NS(C)(=O)=O

Marked response:
1: 7.70; 2: 6.80; 3: 7.44
